system: SF-539 CNS; assay: NCI-60 one-dose screen, 48 h (100 = growth as untreated, 0 = no growth, -100 = all killed); conditions: 10 µM unless noted
About 83,000 compounds went through this panel and 20% of them were active in at least one assay; those are over-represented in the sample as a whole.
So basically: growth at 70% or higher? That is yes (1). Lower than 70%? That is no (0).

molecule=Cc1oc(-c2ccc(Cl)cc2)nc1/C=C/C(=O)c1ccccc1 study_system="SF-539 CNS" category="yes (1)"
molecule=COc1ccc(-c2cc(-c3ccc(Cl)cc3)c(C#N)c(=O)n2CCCCC(=O)Nc2ccccc2N)cc1 study_system="SF-539 CNS" category="yes (1)"

Input line: Check if growth >= 70% (inclusive). Item: "N#Cc1c(-c2ccccc2)cc(-c2ccccc2)n(CCCCCC(=O)Nc2ccccc2N)c1=O"
Output line: yes (1)

Input line: Check if growth >= 70% (inclusive). Item: Nc1nc(=S)c2ncn(C3OC(COP(=O)(O)O)C(O)C3O)c2[nH]1 (stereo not given)
Output line: no (0)

###

The entries below are paired with their reported growth.
system: HOP-62 NSCLC; experiment: NCI-60 one-dose screen, 48 h (100 = growth as untreated, 0 = no growth, -100 = all killed); conditions: 10 µM unless noted
This is part of a sample that, as a whole, favours compounds with a hit. Of some 83,000 tested, about 20% had one in any assay. Active and inactive are the calls of the source. Rule for the calls: active = growth percent below 10; inactive = the rest.

Guide cases for growth, answers given:
molecule=Cc1cccc(Cl)c1NC(=O)c1ccc2nc(NC(=O)NCCN(C)C)sc2c1 result="60.3% (inactive)"
molecule=C#CCOc1ccc2ncnc(Nc3cccc(NC(=O)C=C)c3)c2c1 result="63.6% (inactive)"
molecule=O=C(O)CNC1=C(Cl)C(=O)c2ccccc2C1=O result="95.4% (inactive)"
molecule=Cc1cc2c([nH]1)CSc1cc(S(=O)(=O)c3ccccc3)c(=O)[nH]c1-2 result="33% [100 µM] (inactive)"
molecule=CN1CCN(c2ccc(NC(=O)c3cncnc3Nc3ccc(OCc4ccccn4)c(Cl)c3)cc2)CC1 result="3.8% (active)"
molecule=Cc1c(-n2nnc(-c3nc4ccccc4s3)c2N)c(=O)n(-c2ccccc2)n1C result="103% (inactive)"
molecule=CSc1nc2sc3c(c2c(=O)n1-c1ccc([N+](=O)[O-])cc1)CCCCC3 result="73.4% (inactive)"
molecule=CCSc1nc(NC)c2cc(-c3ccc(C(F)(F)F)cc3)ccc2n1 result="101% (inactive)"

Input line: Value lookup for growth; key = CC1=C(CCC(C)N(C)Cc2ccc(OCCCN3CCCC3)cc2)C(C)(C)CCC1 (stereo not given)
Output line: 36.6% (inactive)

Input line: Value lookup for growth; key = "CC(C)OC(=O)c1ccc2[nH]c(O)c(C(=Nc3ccc(N(C)C(=O)CN4CCN(C)CC4)cc3)c3ccccc3)c2c1"
Output line: -68.8% (active)

###

tested on: MDA-MB-435 melanoma; assay: NCI-60 one-dose screen, 48 h; details: 10 µM unless noted
Compounds without any hit were thinned out: in the full panel of roughly 83,000, 20% have a hit. Active and inactive are the calls of the source. How the source made its calls: active means growth percent below 10; inactive means the rest.
Thanks in advance; please answer with one of these: active, inactive

compound=CC(=O)Cc1nsc(NC(=O)c2cc(-c3cc(Cl)cc(Cl)c3)oc2C)n1 category=inactive
compound=COc1ccc2cc(-c3ccc(NC(C)=O)c(=O)o3)ccc2c1 category=inactive
compound=O=C(NNC(=O)c1ccc(-n2cc(-c3ccccc3)nn2)cc1)Nc1ccccc1 category=inactive

Input line: Recorded test call requested for "COc1ccc2c3c([nH]c2c1)C(=O)c1nc(C)ccc1C3=O"
Output line: active

Input line: Recorded test call requested for "COC(=O)c1c2c(c[n+]([O-])c1C)C(=O)C(NCc1ccccc1)=CC2=O"
Output line: active

Input line: Recorded test call requested for "N#Cc1c(-c2ccccc2)cc(-c2ccccc2)n(CCCCCC(=O)Nc2ccccc2N)c1=O"
Output line: inactive

Input line: Recorded test call requested for "COc1ccc(OC)c(-c2c(C#N)c(-c3cccs3)nc3c2c(-c2ccccc2)nn3-c2ccccc2)c1"
Output line: inactive

Input line: Recorded test call requested for "CN(CCn1sc(=O)n(Cc2ccccc2)c1=O)Cc1ccc2c(Cl)cc(Cl)c(O)c2n1"
Output line: inactive

Input line: Recorded test call requested for CCO/C=N/C1=C(C#N)C(c2ccc(OC)cc2)c2sc3c(F)cccc3c2O1 (stereo unspecified)
Output line: active

Input line: Recorded test call requested for "COc1ccc(-c2nc(/C=C3\SC(=NCc4ccccc4)NC3=O)c3ccccn23)cc1"
Output line: active

Input line: Recorded test call requested for "Fc1ccc2[nH]cc(-c3nonc3-c3c[nH]c4ccc(Br)cc34)c2c1"
Output line: inactive

Input line: Recorded test call requested for "Cc1ccccc1Cn1cnc2ccc(-c3cc(NC(=O)c4ccc(NC5CCN(C)CC5)cc4)n[nH]3)cc21"
Output line: inactive

Input line: Recorded test call requested for "OCCOCCN(Cc1ccccn1)Cc1cc(I)cc(I)c1O"
Output line: inactive

Input line: Recorded test call requested for "O=S(=O)(NCCCNc1nccc(-c2c(-c3ccc(F)c(O)c3)nc3occn23)n1)c1ccccc1"
Output line: inactive

Input line: Recorded test call requested for "O=C(c1ccc(Cl)cc1)N1CCN(c2ccnc3cc(Cl)ccc23)CC1"
Output line: inactive

Input line: Recorded test call requested for "O=C(Cn1c(-c2ccc([N+](=O)[O-])cc2)nc2ccccc21)NNC(=O)c1cccnc1"
Output line: inactive

Input line: Recorded test call requested for "C#Cc1cccc(Nc2ncnc3ccc(-c4cncc(NS(C)(=O)=O)c4)cc23)c1"
Output line: inactive

Input line: Recorded test call requested for N#CC1C=CN(CC(N)=O)c2ccc3cccnc3c21 (stereo unspecified)
Output line: inactive

Input line: Recorded test call requested for C[C@@H]1CCC[C@H]1CC(N)C(=O)O (stereo partly specified)
Output line: inactive

Input line: Recorded test call requested for "COc1ccc(NC(=O)c2sc3nc(C)c(C(=O)/C=C/c4cccc(OC)c4)cc3c2N)cc1"
Output line: inactive

Input line: Recorded test call requested for "COc1ccc(/C=N/NC(=O)CCN2c3ccccc3Sc3ccccc32)cc1"
Output line: active
